subject.of.test: T1, human interleukin-2 receptor β-chain (IL-2Rβ; CD122), recombinant protein (human, UniProt P14784 27-240)
T1 construct: also called human IL-2R subunit CD122
T1 sequence: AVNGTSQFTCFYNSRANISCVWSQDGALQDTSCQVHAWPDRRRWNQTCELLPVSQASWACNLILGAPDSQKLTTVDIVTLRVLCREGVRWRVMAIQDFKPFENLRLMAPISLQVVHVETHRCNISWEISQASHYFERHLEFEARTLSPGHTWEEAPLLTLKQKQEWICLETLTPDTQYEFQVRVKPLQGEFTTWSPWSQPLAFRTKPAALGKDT
method: P.E. off-rate SPR
Each entry below carries its recorded koff.
observation.type: koff (s⁻¹)

[[record]]
binder = "26-MP06A07 VHH (periplasmic extract) (VHH, soluble VHH in periplasmic extract) VHH: QVQLQESGGGLVQAGGSLRLSCAASGDVFVRYTMAWFRQAPGKEREFVASVTDSGRTTEYVDSVKGRFTVSRDNAKNTAYLQMNNLKPEDTAIYYCAANTDYFQIRSLDLNTWGQGTQVTVSS"
recorded_measurement = 0.000363

[[record]]
binder = "18-MP03C03 VHH (periplasmic extract) (VHH, soluble VHH in periplasmic extract) VHH: QVQLVESGGGLVQPGGSLRLSCAISGGTLDSYGIGWVRQAPGKQREGVSCMSRSDDRTYYADSVKGRFTISKDSAKNTVYLQMTSLKPEDTAVYYCAAVDAYGCSLVQPTTYDFWGLGTQVTVSS"
recorded_measurement = 0.000594

[[record]]
binder = "17-MP02C09 VHH (periplasmic extract) (VHH, soluble VHH in periplasmic extract) VHH: QVQLQESGGGLVQAGGSLRLSCVASGSVSSINGMAWYRQGADNQRVLVAAISRVGNTAYGDSVKGRFTISRQNARNTVYLQMNSLKPEDTAVYYCNADSWGGDDYWGQGTQVTVSS"
recorded_measurement = 0.000848

[[record]]
binder = "24-MP06E05 VHH (periplasmic extract) (VHH, soluble VHH in periplasmic extract) VHH: QVQLVESGGELVQGGASLRLSCAASGRTFSNANMAWFRQAPEKEREFVALITWSSGSTLYADSVKGRFTISRDNARKMVYLQMNSLKPEDTAVYYCAADGPPYSGTYYRYDTYDYWGQGTQVTVSS"
recorded_measurement = 0.000471

